test system: CCRIS mutagenicity, Ames/micronucleus/aberration tests; experiment: CCRIS mutagenicity studies; conditions: Test System: AMES SALMONELLA TYPHIMURIUM; Strain/Indicator: TA102; Metabolic Activation: RAT, LIVER, S-9, AROCLOR 1254; Method: PREINCUBATION
Calls of active or inactive are those of the source. How the calls were made is not given here.
Respond only with the outcome that fits, drawn from t = active, f = inactive

Solved cases below.
{"COMPOUND": "CCCCCC", "CLASS_NAME": "f"}
{"COMPOUND": "O=P(O)(O)OC(CO)CO", "CLASS_NAME": "f"}
{"COMPOUND": "O=S(Cl)Cl", "CLASS_NAME": "t"}
{"COMPOUND": "Oc1ccc(-c2ccc(O)cc2)cc1", "CLASS_NAME": "f"}
{"COMPOUND": "c1ccc2nccnc2c1", "CLASS_NAME": "f"}

Exercise: Recorded call for CCCC(=O)OC1CCCCC1 ?
Key: f

Exercise: Check the results log: what was the call for O=S(=O)(O)OOS(=O)(=O)O ?
Key: f

Exercise: Recorded test call requested for CCC(C)C=O (stereo not drawn)
Key: f

Exercise: Assay result, entry CCCC(=O)O — outcome?
Key: f

Exercise: Query: recorded result category for Oc1ccccc1 in this test
Key: f

Exercise: For this compound, state the assay outcome: Cc1occc(=O)c1O
Key: f

Exercise: Outcome logged for CCN=C=S in this assay:
Key: f

Exercise: State the result this test recorded for CCOC(=O)CC(C)=O .
Key: f

Exercise: Field: outcome | Entry: CN=C=O
Key: f

Exercise: I'd appreciate the recorded outcome for Cc1ncc(CO)c(CO)c1O from this test.
Key: f

Exercise: What classification did Cc1ccccn1 end up with in this test?
Key: f

Exercise: Hello, I am checking results. What call was entered for O=c1ccn([C@@H]2O[C@H](COP(=O)(O)O)[C@@H](O)[C@H]2O)c(=O)[nH]1 ?
Key: f

Exercise: Could you check what this test reported for COc1ccccc1/C=C/C=O ?
Key: f

###

tested on: CCRIS mutagenicity, Ames/micronucleus/aberration tests; test: CCRIS mutagenicity studies; conditions: Test System: E.COLI; Strain/Indicator: WP2 UVRA; Metabolic Activation: NONE; Method: PREINCUBATION
The source made the active and inactive calls. How the calls were made is not given here.
Choose one outcome from this list and give only that: active, inactive

{"MOLECULE": "O=C(Cl)Cc1ccccc1", "CLASS_NAME": "active"}
{"MOLECULE": "CCCCCN(CCCOC)C(=O)C(CCC(=O)O)NC(=O)c1ccc(Cl)c(Cl)c1 (stereo not given)", "CLASS_NAME": "inactive"}
{"MOLECULE": "C[C@H]1COc2c(N3CCN(C)CC3)c(F)cc3c(=O)c(C(=O)O)cn1c23", "CLASS_NAME": "inactive"}
{"MOLECULE": "C[C@@H]1COc2c(N3CCN(C)CC3)c(F)cc3c(=O)c(C(=O)O)cn1c23", "CLASS_NAME": "inactive"}

Exercise: # outcome recorded in this test, key = O=Cc1cccc(Cl)c1Cl
Key: inactive

Exercise: Please let me know the test result on file for O=C(O)c1cc(Cl)ccc1Cl .
Key: inactive

Exercise: Which result was noted for this molecule in the test: O=C(Cl)C(Cl)c1ccccc1 (stereo not given)
Key: active

Exercise: // outcome(item) with item = CNCc1ccc(CSCCNC(=NCC(O)c2ccc(O)cc2)NS(C)(=O)=O)o1 (stereo not given)
Key: inactive

Exercise: Identify the outcome logged in this assay for the molecule shown: Cc1ccc(C(=O)Cl)cc1
Key: active

Exercise: // return assay outcome for O=C(Cl)c1ccccc1Cl
Key: inactive

###

system: CCRIS mutagenicity, Ames/micronucleus/aberration tests; test: CCRIS mutagenicity studies; conditions: Test System: AMES SALMONELLA TYPHIMURIUM; Strain/Indicator: TA102; Metabolic Activation: NONE; Method: PREINCUBATION
The source made the active and inactive calls. No rule for the calls is given here.
# output must be one of active, inactive

Field: example entries. Status: answers known.
{"COMPOUND": "CCCC(=O)O", "CLASS_NAME": "inactive"}
{"COMPOUND": "Cc1c(N)nc(C(CC(N)=O)NCC(N)C(N)=O)nc1C(=O)NC(C(=O)NC(C)C(O)C(C)C(=O)NC(C(=O)NCCc1nc(-c2nc(C(=O)O)cs2)cs1)C(C)O)C(OC1OC(CO)C(O)C(O)C1OC1OC(CO)C(O)C(OC(N)=O)C1O)c1cnc[nH]1 (stereo unspecified)", "CLASS_NAME": "inactive"}
{"COMPOUND": "c1ccc2nccnc2c1", "CLASS_NAME": "inactive"}
{"COMPOUND": "CCN=C=S", "CLASS_NAME": "inactive"}
{"COMPOUND": "CCC(CC)[N+](=O)[O-]", "CLASS_NAME": "inactive"}
{"COMPOUND": "CC1=CC(=O)C=CC1=O", "CLASS_NAME": "inactive"}

Exercise: Would you mind telling me which call this test gave O=c1[nH]c(=O)n([C@H]2C[C@H](O)[C@@H](CO)O2)cc1/C=C/Br ?
Key: inactive

Exercise: Tell me the assay call for O=C1C=CC(=O)c2c(O)ccc(O)c21 please.
Key: active

###

test system: CCRIS mutagenicity, Ames/micronucleus/aberration tests; experiment: CCRIS mutagenicity studies; conditions: Test System: AMES SALMONELLA TYPHIMURIUM; Strain/Indicator: TA100; Metabolic Activation: NONE; Method: DESICCATOR
Active and inactive are the calls of the source. How the calls were made is not given here.
Parameter call: string, one of 1 (yes) (active), 0 (no) (inactive)

{"STRUCTURE_AS_SMILES": "ClC(Br)Br", "CLASS_NAME": "1 (yes)"}
{"STRUCTURE_AS_SMILES": "ClC=C(Cl)Cl", "CLASS_NAME": "0 (no)"}
{"STRUCTURE_AS_SMILES": "CC(C)(C)Br", "CLASS_NAME": "1 (yes)"}
{"STRUCTURE_AS_SMILES": "CCBr", "CLASS_NAME": "1 (yes)"}
{"STRUCTURE_AS_SMILES": "CI", "CLASS_NAME": "1 (yes)"}

Exercise: I would be grateful if you could indicate the recorded call for CCC/C=C/C=O .
Key: 0 (no)

###

tested on: CCRIS mutagenicity, Ames/micronucleus/aberration tests; assay: CCRIS mutagenicity studies; conditions: Test System: AMES SALMONELLA TYPHIMURIUM; Strain/Indicator: TA100; Metabolic Activation: NONE; Method: SUSPENSION/PLATE
Active and inactive are the calls of the source. How the calls were made is not given here.
Outcome (select one): active, inactive

{"COMPOUND": "[CH3][Sn]([CH3])([CH3])[Cl]", "CLASS_NAME": "inactive"}
{"COMPOUND": "Cc1ccc(N)cc1N=[N+]([O-])c1cc(N)ccc1C", "CLASS_NAME": "inactive"}
{"COMPOUND": "Cc1ccc(N=[N+]([O-])c2ccc(C)c(N)c2)cc1N", "CLASS_NAME": "inactive"}
{"COMPOUND": "CC1CO1 (stereo unspecified)", "CLASS_NAME": "active"}
{"COMPOUND": "BrCCBr", "CLASS_NAME": "active"}

Please examine the following record next.
Exercise: Please share the test call associated with [CH3][Sn]([CH3])([Cl])[Cl] .
Key: inactive

###

test system: CCRIS mutagenicity, Ames/micronucleus/aberration tests; assay: CCRIS mutagenicity studies; conditions: Test System: AMES SALMONELLA TYPHIMURIUM; Strain/Indicator: TA104; Metabolic Activation: RAT, LIVER, S-9, AROCLOR 1254; Method: PREINCUBATION
Activity calls are given as the source filed them. How the calls were made is not given here.
READOUT_KIND: mutagenic call

{"MOLECULE": "CC(=O)NC[C@H](O)COc1cccc2ccccc12", "mutagenic call": "active; positive"}
{"MOLECULE": "O=c1[nH]c(=O)n([C@H]2C[C@H](O)[C@@H](CO)O2)cc1/C=C/Br", "mutagenic call": "inactive; negative"}
{"MOLECULE": "CC(O)CN(CC(C)O)N=O (stereo not drawn)", "mutagenic call": "inactive; negative"}
{"MOLECULE": "CN=C=O", "mutagenic call": "inactive; negative"}
{"MOLECULE": "Oc1ccc(-c2ccc(O)cc2)cc1", "mutagenic call": "inactive; negative"}
{"MOLECULE": "Oc1ccccc1", "mutagenic call": "inactive; negative"}
{"MOLECULE": "C=O", "mutagenic call": "active; positive"}

Now consider a different molecule.
Lab note: CN(N=O)C(N)=O gave mutagenic call of active; positive

###

tested on: CCRIS mutagenicity, Ames/micronucleus/aberration tests; test: CCRIS mutagenicity studies; conditions: Test System: AMES SALMONELLA TYPHIMURIUM; Strain/Indicator: TA1538; Metabolic Activation: RAT, LIVER, S-9, AROCLOR 1254; Method: STANDARD PLATE
Activity calls are given as the source filed them. The rule behind the calls is not given here.
One label from this list, please: active, inactive

{"COMPOUND": "O=[N+]([O-])c1ccc(N=Nc2ccc(N(CCO)CCO)cc2)c([N+](=O)[O-])c1", "CLASS_NAME": "active"}
{"COMPOUND": "Cc1cc(C(O)c2ncc([N+](=O)[O-])n2C)c(O)c(C(C)(C)C)c1 (centres undefined)", "CLASS_NAME": "inactive"}
{"COMPOUND": "CC1(C)[C@@H]2CC[C@@]1(C)C(=O)C2=O", "CLASS_NAME": "inactive"}
{"COMPOUND": "C=Cc1ccccn1", "CLASS_NAME": "inactive"}
{"COMPOUND": "CC(=O)N1CCC[C@H]1C(=O)N(CC(=O)O)N=O", "CLASS_NAME": "inactive"}
{"COMPOUND": "CCOC(=O)C(Cl)C(C)=O (centres undefined)", "CLASS_NAME": "inactive"}

Exercise: Which outcome was assigned to C=CC(=O)OCCCCCC in this test?
Key: inactive

Exercise: Record lookup: outcome of this test for Cc1ccc(N)cc1Cl ?
Key: inactive

Exercise: For CC(S)C(=O)NCC(=O)O (centres undefined) , which call appears in the assay record?
Key: inactive

Exercise: Please indicate how the test categorized CC(=O)Oc1ccccc1C(=O)Oc1ccccc1C(=O)O .
Key: inactive

Exercise: What call does the record list for [Cl][Sn][Cl] ?
Key: inactive

Exercise: Write down the call the test reported for this compound. Item: O=c1ccc2cc3c4c(c2o1)CCCN4CCC3
Key: active

Exercise: Tell me the assay call for C/C=C\c1ccc(OC)cc1OC please.
Key: inactive

Exercise: Answer briefly: the call reported for O=C1c2ccccc2C(=O)c2c1cc(O)c(O)c2O in this assay.
Key: active
